Target: Carbonic anhydrase 9 (Homo sapiens)
Assay: Binding affinity to human CA9 by phenol red dye based stopped flow CO2 hydration assay
Conditions: filed as activator
Decision: Ka beneath 60 µM gives true; Ka meeting or exceeding 60 µM gives false.

Problem: Does the reported Ka of the following molecule sit strictly below 60 µM? Cc1ccc([Se]CC(C)N)cc1 (configuration not stated)
Result: false

Problem: Does the reported Ka of the following molecule sit strictly below 60 µM? CC(N)C[Se]c1ccccc1 (configuration not stated)
Result: true

Problem: Does the reported Ka of the following molecule sit strictly below 60 µM? Cc1ccc([Te]CC(C)N)cc1 (configuration not stated)
Result: false

Problem: Does the reported Ka of the following molecule sit strictly below 60 µM? CC(N)C[Te]c1ccccc1 (configuration not stated)
Result: true

Problem: Does the reported Ka of the following molecule sit strictly below 60 µM? Cc1ccccc1[Se]CC(C)N (configuration not stated)
Result: false

Problem: Does the reported Ka of the following molecule sit strictly below 60 µM? CC(N)C[Se]c1ccc(F)cc1 (configuration not stated)
Result: true

Problem: Does the reported Ka of the following molecule sit strictly below 60 µM? CC(N)CSc1ccc(Br)cc1 (configuration not stated)
Result: false
